target: UniProtKB P49841; assay: GSK3b TR-FRET kinase assay; format: biochemical; settings: 1 nM GSK3b, 2 μM ATP, 30 minute preincubation, Table 16; read-out: GSK3-B TR-FRET BIOCHEMICAL (TR-FRET); IC50
Sequence (P49841 whole entry): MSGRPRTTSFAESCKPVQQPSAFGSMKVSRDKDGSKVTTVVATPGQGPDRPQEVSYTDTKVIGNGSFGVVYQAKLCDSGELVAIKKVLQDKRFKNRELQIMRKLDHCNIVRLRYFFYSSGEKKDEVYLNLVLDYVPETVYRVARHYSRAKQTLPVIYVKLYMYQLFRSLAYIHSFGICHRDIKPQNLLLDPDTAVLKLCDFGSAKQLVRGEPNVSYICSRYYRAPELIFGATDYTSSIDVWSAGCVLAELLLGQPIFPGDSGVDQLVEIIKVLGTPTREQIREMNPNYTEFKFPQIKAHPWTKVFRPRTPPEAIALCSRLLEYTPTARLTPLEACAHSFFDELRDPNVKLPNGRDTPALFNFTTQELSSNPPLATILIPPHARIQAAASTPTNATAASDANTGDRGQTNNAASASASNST
pIC50: −log10 of the molar value.
EXPERIMENTAL_ENDPOINT: pIC50

These recorded examples may help you get a feel for the data.
{"MOLECULE": "CCC1(c2cccc(-c3ccnc4ccccc34)c2)C2=C(CC(C)(C)CC2=O)Nc2n[nH]cc21 (stereo not drawn)", "MEAS_VALUE": "≥ 7.00"}
{"MOLECULE": "CC[C@]1(c2cccc(C(F)F)c2)C2=C(CC(C)(C)NC2=O)Nc2n[nH]c(C(F)(F)F)c21", "MEAS_VALUE": "5.30 to 6.00"}
{"MOLECULE": "CC[C@H]1C[C@@]2(CCO1)C1=C(CC(C)(C)CC1=O)Nc1n[nH]cc12", "MEAS_VALUE": "5.30 to 6.00"}
{"MOLECULE": "CC(=O)N1CCCC2(CC1)C1=C(CC(C)(C)CC1=O)Nc1n[nH]cc12 (stereo not drawn)", "MEAS_VALUE": "5.30 to 6.00"}
{"MOLECULE": "CC[C@@]1(c2cccc(-c3ccnc(N(C)C)c3)c2)C2=C(CC(C)(C)CC2=O)Nc2n[nH]c(C)c21", "MEAS_VALUE": "≥ 7.00"}

# return recorded pIC50 for entry CC[C@]1(c2cccc(-c3cnn(Cc4ccc(OC)cc4)c3)c2)C2=C(CC(C)(C)NC2=O)Nc2n[nH]cc21
5.30 to 6.00

# return recorded pIC50 for entry CC[C@]1(c2cc(-c3ccncc3)ccc2F)C2=C(CC(C)(C)CC2=O)Nc2n[nH]cc21
< 5.30

# return recorded pIC50 for entry CCC1(c2cccc(-c3ccnc(C)c3)c2)C2=C(CC(C)CC2=O)Nc2n[nH]cc21 (stereo not drawn) [Compound 932638]
< 5.30

# return recorded pIC50 for entry CC[C@]1(c2cccc(-c3cnn(-c4cccnc4)c3)c2)C2=C(CC(C)(C)NC2=O)Nc2n[nH]cc21
< 5.30

# return recorded pIC50 for entry CCC1(c2cccc(-c3c(C)nn(C)c3C)c2)C2=C(CC(C)(C)CC2=O)Nc2n[nH]c(C)c21 (stereo not drawn) [Compound 913026]
6.00 to 7.00

# return recorded pIC50 for entry Cc1cccc2c1CC[C@]21C2=C(CC(C)(C)CC2=O)Nc2n[nH]cc21
6.00 to 7.00

# return recorded pIC50 for entry CC[C@]1(c2cccc(C3CC3)c2)C2=C(CC(C)(C)NC2=O)Nc2n[nH]cc21 [Compound 950817]
< 5.30

# return recorded pIC50 for entry CCC1(c2cccc(C3CCCC3)c2)C2=C(CC(C)(C)CC2=O)Nc2n[nH]cc21 (stereo not drawn)
≥ 7.00

# return recorded pIC50 for entry CCC1(c2cccc(-c3ccnn3CCC(C)C)c2)C2=C(CC(C)(C)CC2=O)Nc2n[nH]cc21 (stereo not drawn)
≥ 7.00

# return recorded pIC50 for entry CC[C@@]1(c2cccc(C(F)(F)F)c2)C2=C(CCN(c3cc(C)n(C)n3)C2=O)Nc2n[nH]cc21
6.00 to 7.00

---

target: GSK3α (GST-full length GSK3α) (Homo sapiens (Human)); assay: GSK3α TR-FRET kinase assay; type: biochemical; settings: 1 nM GSK3α, 4 μM ATP, 30 minute preincubation, Table 16; read-out: GSK3-A TR-FRET BIOCHEMICAL (TR-FRET); IC50
Sequence (P49840 whole entry): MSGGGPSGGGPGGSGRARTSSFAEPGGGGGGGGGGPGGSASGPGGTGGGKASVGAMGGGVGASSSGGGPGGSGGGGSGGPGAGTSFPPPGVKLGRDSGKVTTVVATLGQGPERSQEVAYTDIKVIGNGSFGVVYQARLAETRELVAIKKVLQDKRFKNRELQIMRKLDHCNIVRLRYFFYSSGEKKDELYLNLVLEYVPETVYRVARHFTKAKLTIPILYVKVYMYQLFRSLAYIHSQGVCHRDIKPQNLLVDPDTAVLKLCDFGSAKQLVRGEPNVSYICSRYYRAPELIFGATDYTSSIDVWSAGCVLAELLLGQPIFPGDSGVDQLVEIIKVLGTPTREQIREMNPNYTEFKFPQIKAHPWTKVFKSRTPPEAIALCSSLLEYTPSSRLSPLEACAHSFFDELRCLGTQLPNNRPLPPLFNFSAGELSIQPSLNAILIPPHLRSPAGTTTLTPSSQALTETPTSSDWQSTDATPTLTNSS
pIC50: −log10 of the molar value.
Recorded pIC50 values for a group of compounds are listed next.

These recorded examples may help you get a feel for the data.
{"COMPOUND": "CC1(C)CC(=O)C2=C(C1)Nc1n[nH]cc1C21CN(S(=O)(=O)c2cccnc2)C1", "EXPERIMENTAL_ENDPOINT": "pIC50", "MEAS_VALUE": "< 5.30"}
{"COMPOUND": "CCC1(c2cccc(-c3cc(C)nn3C)c2)C2=C(CC(C)(C)C2=O)Nc2n[nH]cc21 (centres unmarked)", "EXPERIMENTAL_ENDPOINT": "pIC50", "MEAS_VALUE": "6.00 to 7.00"}
{"COMPOUND": "CCC1(CCc2ccccc2)C2=C(CC(C)(C)CC2=O)Nc2n[nH]cc21 (centres unmarked)", "EXPERIMENTAL_ENDPOINT": "pIC50", "MEAS_VALUE": "5.30 to 6.00"}

# return recorded pIC50 for entry CCC1(c2cccc(-c3cnn(C)c3C)c2)C2=C(CC(C)(C)CC2=O)Nc2n[nH]c(C)c21 (centres unmarked)
≥ 7.00

# return recorded pIC50 for entry CC1OCCC12C1=C(CC(C)(C)CC1=O)Nc1n[nH]cc12 (centres unmarked)
< 5.30

# return recorded pIC50 for entry CC[C@]1(c2cccc(-c3ccncc3F)c2)C2=C(CC(C)(C)NC2=O)Nc2n[nH]c(F)c21
< 5.30

# return recorded pIC50 for entry CCC1(c2cccc(-c3cnn(CCOC)c3)c2)C2=C(CC(C)(C)CC2=O)Nc2n[nH]c(C)c21 (centres unmarked)
≥ 7.00

# return recorded pIC50 for entry CCC1(c2cccc(N(C)c3cccc(OC)n3)c2)C2=C(CC(C)(C)CC2=O)Nc2n[nH]cc21 (centres unmarked)
≥ 7.00

Reference source: patent US20250313563A1
